- Measurement Target: Estrogen receptor (Mus musculus) (UniProt O08537+P19785)
- Sequence (O08537 whole entry, looked up): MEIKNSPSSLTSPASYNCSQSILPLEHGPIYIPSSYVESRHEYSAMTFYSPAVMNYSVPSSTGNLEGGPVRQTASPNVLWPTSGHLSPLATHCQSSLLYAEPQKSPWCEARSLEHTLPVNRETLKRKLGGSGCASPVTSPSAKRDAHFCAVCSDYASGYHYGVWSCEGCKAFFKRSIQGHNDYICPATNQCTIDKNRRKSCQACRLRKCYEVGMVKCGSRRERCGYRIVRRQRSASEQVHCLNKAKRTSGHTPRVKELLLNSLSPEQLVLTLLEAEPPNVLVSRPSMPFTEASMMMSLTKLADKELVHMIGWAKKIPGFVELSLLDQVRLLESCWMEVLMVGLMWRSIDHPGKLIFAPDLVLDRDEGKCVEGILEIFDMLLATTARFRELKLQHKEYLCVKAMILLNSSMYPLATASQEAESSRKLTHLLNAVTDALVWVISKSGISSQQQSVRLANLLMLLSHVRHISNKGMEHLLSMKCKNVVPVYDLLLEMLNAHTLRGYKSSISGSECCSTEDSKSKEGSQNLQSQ
- Sequence (P19785 whole entry, looked up): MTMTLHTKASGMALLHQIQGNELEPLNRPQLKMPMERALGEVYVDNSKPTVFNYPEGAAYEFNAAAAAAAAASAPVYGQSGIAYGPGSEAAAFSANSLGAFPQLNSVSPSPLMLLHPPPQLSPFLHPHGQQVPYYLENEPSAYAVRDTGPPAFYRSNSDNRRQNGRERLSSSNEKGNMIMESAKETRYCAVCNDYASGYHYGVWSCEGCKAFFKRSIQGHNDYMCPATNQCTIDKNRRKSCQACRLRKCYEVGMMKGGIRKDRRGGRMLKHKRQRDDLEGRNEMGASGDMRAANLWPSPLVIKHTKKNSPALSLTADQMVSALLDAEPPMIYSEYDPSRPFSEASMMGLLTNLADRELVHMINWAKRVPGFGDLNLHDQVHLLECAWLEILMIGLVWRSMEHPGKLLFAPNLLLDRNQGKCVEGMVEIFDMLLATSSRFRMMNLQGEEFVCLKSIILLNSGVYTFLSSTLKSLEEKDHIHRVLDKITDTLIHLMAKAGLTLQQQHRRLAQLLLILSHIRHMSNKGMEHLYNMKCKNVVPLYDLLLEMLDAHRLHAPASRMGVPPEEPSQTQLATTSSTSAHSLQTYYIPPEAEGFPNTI
- Assay: Relative binding affinity (RBA) for murine cytoplasmic estrogen receptor at 4C for 18 hr
- Format: protein assay
Measured Quantity: RBA
The answer should be a number; do not append a unit.

In the examples that follow, each entry is paired with its recorded RBA.
[[record]]
smiles_record = "C[C@]12CC[C@@H]3c4cc(F)c(O)cc4CC[C@H]3[C@@H]1CC[C@@]2(O)/C=C/I"
measured_quantity = "RBA"
value_reported = 6.2

[[record]]
smiles_record = "C#C[C@]1(O)CC[C@H]2[C@@H]3CCc4c(ccc(O)c4F)[C@H]3CC[C@@]21C"
measured_quantity = "RBA"
value_reported = 119

[[record]]
smiles_record = "C[C@]12CC[C@@H]3c4ccc(O)c(F)c4CC[C@H]3[C@@H]1CC[C@@]2(O)/C=C\\I"
measured_quantity = "RBA"
value_reported = 66.9

[[record]]
smiles_record = "C[C@]12CC[C@@H]3c4ccc(O)c(F)c4CC[C@H]3[C@@H]1CC[C@@]2(O)/C=C/I"
measured_quantity = "RBA"
value_reported = 55.9


Next, consider the following compound.
// RBA value for C[C@]12CC[C@@H]3c4cc(F)c(O)cc4CC[C@H]3[C@@H]1CC[C@@]2(O)/C=C\I : 53.7
